Exercise: for every item that follows, state its recorded z-score.
assay: A549 cell viability effects, profiling panel, calcein-AM fluorescence, 48 h, basal (AID 1162); conditions: higher = more signal; further: test concentration not given here
Answers are plain numbers.

The following compounds have reported results that may help.
>>> numeric_readout("O=C1O[C@@H](c2ccccc2)[C@@H](c2ccccc2)N2[C@@H](c3ccc(OCCO)cc3)[C@]3(C(=O)Nc4ccc(C#CCCO)cc43)[C@@H](C(=O)N3CCCCCCC3)[C@H]12")
0.819
>>> numeric_readout("Cc1ccc(S(=O)(=O)N[C@@H]2COC(=O)[C@H](C)COC(=O)CC=C[C@H]2C)cc1")
0.449
>>> numeric_readout("COC(=O)C1=C(C)N(Cc2ccccc2)[C@]23O[C@](C(=O)OC)(C(=O)N2[C@@H]1c1ccccc1)[C@H]1CCOC(=O)[C@H]13")
0.589
>>> numeric_readout("CCN(CC)c1ccc(N2CC=CC34O[C@@H]5/C=C\\CCC(C)OC(=O)C5[C@H]3C(=O)N(CCCO)[C@@H]4C2=O)cc1 (stereo not given in full)")
0.28
>>> numeric_readout("CCCC[C@@H](O)C1=C(C)C[C@H]2C(=O)N(Cc3ccccc3)C(=O)[C@H]2[C@H]1CO")
0.35
>>> numeric_readout("COC(=O)[C@@]1(Cc2ccc(F)cc2)[C@H]2c3cc(C(=O)N(C)C)n(Cc4ccc(OC)c(OC)c4)c3C[C@H]2CN1C(=O)c1ccccc1")
-0.74
>>> numeric_readout("O=C1C2C=CC(C(O)c3ccc([N+](=O)[O-])cc3)N(Nc3ccc([N+](=O)[O-])cc3)C2C(=O)N1c1ccccc1 (stereo not given)")
-0.682
>>> numeric_readout("O=C(NN=C1C[C@@H](O)[C@@H](O)[C@@H]2[C@@H]3C(=O)N(c4cccc(Oc5ccccc5)c4)C(=O)[C@@H]3CC[C@H]12)OCc1ccccc1")
-0.207

Value sought for every listed compound: z-score.
1. CCN1C(=O)[C@H]2[C@H]3[C@H](O)[C@H](O)CC(=NOC(C)CN4CCCCc5nc(C)c(C)cc54)[C@@H]3CC[C@H]2C1=O (stereo not given in full)
2. CC(C)C[C@@H]1NC(=O)[C@H]2C[C@@H](C(=O)NCCCCCCN(C)C)[C@@H](c3cccc(OCCO)c3)N2C1=O
3. COc1ccc(-c2nc3c(c4c2C[C@H](C)OC4)CN(CCC(C)C)CC3)cc1
4. CC=CC1=C(CO)[C@H](O)[C@H]2O[C@H]2[C@H]1O

1: -0.421; 2: -1.26; 3: 0.537; 4: -0.286

Value sought for every listed compound: z-score.
1. CCCCC(=C=CC[C@H](O)c1ccccc1OCCO)C[C@H](O)COCc1ccccc1
2. O=C1NC(=O)C2C1C=CC(C(O)Cc1ccccc1)N2Nc1ccccn1 (stereo not given)
3. CC(C)(C)N1C(=O)[C@H]2[C@H]3[C@H](O)[C@H](O)CC(=NO[C@@H]4O[C@H](CO)[C@@H](O)[C@H](O)[C@H]4O)[C@@H]3CC[C@H]2C1=O

1. 0.395
2. 0.379
3. -0.504

* * *

tested on: PRMT1 (protein arginine N-methyltransferase 1); assay: PRMT1 binders on small-molecule microarrays, primary screen, biochemical, small-molecule microarray, 635 nm fluorescence (AID 1088); conditions: small-molecule microarray binding, higher = more signal;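 further: binding of Prmt1 protein to compounds spotted on small-molecule microarray slides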
Exercise: for every item that follows, state its recorded composite z-score.
One number for each entry.

The following compounds have reported results that may help.
>>> numeric_readout("CO[C@@H]1COC(=O)CC=C[C@@H](C)COC(=O)[C@H](COCc2ccccc2)NC(=O)CC=C[C@H]1C")
0.943
>>> numeric_readout("CCCC[C@H]1OB(O)C[C@H]2C1=C(C)C[C@H]1C(=O)N(C)C(=O)[C@H]12")
0.95
>>> numeric_readout("O=C1O[C@@H](c2ccccc2)[C@@H](c2ccccc2)N2[C@@H](c3ccc(OCCO)cc3)[C@]3(C(=O)Nc4ccccc43)[C@@H](C(=O)N3CCN(c4ncccn4)CC3)[C@H]12")
1.53
>>> numeric_readout("CCOC(=O)NN=C1C[C@@H](O)[C@@H](O)[C@@H]2[C@@H]3C(=O)N(C(C)(C)C)C(=O)[C@@H]3CC[C@@H]12")
-0.172
>>> numeric_readout("COCC1=C2[C@@H](CCc3ccccc3)OB(O)C[C@@H]2n2c(=O)n(-c3ccccc3)c(=O)n2C1")
-0.162

Value sought for every listed compound: composite z-score.
1. CC(C)N1CC=CC23O[C@@H]4C=CCCOC(=O)C4[C@H]2C(=O)N(CCCCCCO)[C@@H]3C1=O (some centres undefined)
2. CC(C)(C)N1C(=O)[C@H]2[C@H]3[C@H](O)[C@H](O)CC(=NO[C@@H]4O[C@H](CO)[C@@H](O)[C@H](O)[C@H]4O)[C@@H]3CC[C@H]2C1=O
3. CCOC(=O)CCN1C(=O)[C@H]2[C@H]3[C@H](O)[C@H](O)CC(=NNC(=O)OCc4ccc(OC)cc4)[C@@H]3CC[C@H]2C1=O
4. CC(C)(C)N1C(=O)[C@H]2[C@H]3[C@H](O)[C@H](O)CC(=NOCc4ccccc4)[C@@H]3CC[C@H]2C1=O
5. CCOC(=O)[C@H](CC(C)C)NC(=O)CCC1CC(OC(=O)NCc2cccc3ccccc23)CC2(CCCC(COC(=O)NCCc3ccccc3OC)O2)O1 (some centres undefined)
6. CCOC(=O)NN=C1C[C@@H](O)[C@@H](O)[C@@H]2[C@@H]3C(=O)N(C[C@@H]4CCCO4)C(=O)[C@@H]3CC[C@@H]12

1: 0.613; 2: 1.49; 3: 0.372; 4: 0.966; 5: 1.28; 6: 0.0939
